tested on: FADD−/− Jurkat cells; experiment: Necroptosis inhibition assay, TNF-α-induced necroptosis (CellTiter-Glo 2.0); assay type: cell-based, human; conditions: compound 10 μM; TNF-α 15 ng/mL, FADD−/− Jurkat cells
experimental_readout: Necroptosis inhibition assay (Rescue %) 10 μM

{"molecule": "COc1ccc(C(=O)N2CCC(CN3CCC(n4cc(-c5cnc(N)c(C(=O)O[C@@H](C(=O)Nc6ccc(F)cc6)c6ccccc6)n5)cn4)CC3)CC2)cc1N1CCC(=O)NC1=O", "assay_target": "FADD−/− Jurkat cells", "measured": "19.83%"}
{"molecule": "Nc1ncc(-c2cnn(C3CCN(CCC4CCN(C(=O)c5cccc(C(=O)NC6CCC(=O)NC6=O)c5)CC4)CC3)c2)nc1C(=O)O[C@@H](C(=O)Nc1ccc(F)cc1)c1ccccc1 (some centres unmarked)", "assay_target": "FADD−/− Jurkat cells", "measured": "26.19%"}
{"molecule": "Nc1ncc(-c2cnn(C3CCN(C(=O)CCC4CCN(C(=O)C5CCN(c6cccc7c6C(=O)N(C6CCC(=O)NC6=O)C7=O)CC5)CC4)CC3)c2)nc1C(=O)O[C@@H](C(=O)Nc1ccc(F)cc1)c1ccccc1 (some centres unmarked)", "assay_target": "FADD−/− Jurkat cells", "measured": "14.37%"}
{"molecule": "Nc1ncc(-c2cnn(C3CCN(C4CC5(CCN(CC6CCN(C(=O)c7ccc(C(=O)NC8CCC(=O)NC8=O)cc7)CC6)CC5)C4)CC3)c2)nc1C(=O)O[C@@H](C(=O)Nc1ccc(F)cc1)c1ccccc1 (some centres unmarked)", "assay_target": "FADD−/− Jurkat cells", "measured": "30.76%"}
{"molecule": "Nc1ncc(-c2cnn(C3CCN(CCc4cn(C5CCN(C(=O)CNc6ccc7c(c6)C(=O)N(C6CCC(=O)NC6=O)C7=O)CC5)nn4)CC3)c2)nc1C(=O)O[C@@H](C(=O)Nc1ccc(F)cc1)c1ccccc1 (some centres unmarked)", "assay_target": "FADD−/− Jurkat cells", "measured": "26.02%"}

====

molecular target: MLKL (Homo sapiens); assay: MLKL degradation assay in HepG2 cell line (western blot); assay type: cell-based; design: endogenous in cells; host or cells: HepG2 or HaCaT; details: compound 1 μM; cell line not given
experimental_readout: Degradation assay (Degradation %) 1 μM

{"molecule": "Nc1ncc(-c2ccc(N3CCN(CCOCCOCCNC(=O)COc4cccc5c4C(=O)N(C4CCC(=O)NC4=O)C5=O)CC3)nc2)nc1C(=O)OC(C(=O)Nc1ccc(F)cc1)c1ccccc1 (stereo not drawn)", "assay_target": "MLKL (Homo sapiens)", "quantity_unit": "%", "measured": 34.54}
{"molecule": "Nc1ncc(-c2cnn(C3CCN(CCOCCOCCNC(=O)C4CCN(c5cccc6c5C(=O)N(C5CCC(=O)NC5=O)C6=O)CC4)CC3)c2)nc1C(=O)O[C@@H](C(=O)Nc1ccc(F)cc1)c1ccccc1 (stereo partly drawn)", "assay_target": "MLKL (Homo sapiens)", "quantity_unit": "%", "measured": 9.84}
{"molecule": "Nc1ncc(-c2cnn(C3CCN(CC4CN(C(=O)C5CCN(c6ccc7c(c6)C(=O)N(C6CCC(=O)NC6=O)C7=O)CC5)CCO4)CC3)c2)nc1C(=O)OC(C(=O)Nc1ccc(F)cc1)c1ccccc1 (stereo not drawn)", "assay_target": "MLKL (Homo sapiens)", "quantity_unit": "%", "measured": 72.47}

====

Recorded measurements of log10 of Kd, one per entry
biological target: MLKL (Homo sapiens, UniProt Q8NB16)
Sequence (Q8NB16 whole entry): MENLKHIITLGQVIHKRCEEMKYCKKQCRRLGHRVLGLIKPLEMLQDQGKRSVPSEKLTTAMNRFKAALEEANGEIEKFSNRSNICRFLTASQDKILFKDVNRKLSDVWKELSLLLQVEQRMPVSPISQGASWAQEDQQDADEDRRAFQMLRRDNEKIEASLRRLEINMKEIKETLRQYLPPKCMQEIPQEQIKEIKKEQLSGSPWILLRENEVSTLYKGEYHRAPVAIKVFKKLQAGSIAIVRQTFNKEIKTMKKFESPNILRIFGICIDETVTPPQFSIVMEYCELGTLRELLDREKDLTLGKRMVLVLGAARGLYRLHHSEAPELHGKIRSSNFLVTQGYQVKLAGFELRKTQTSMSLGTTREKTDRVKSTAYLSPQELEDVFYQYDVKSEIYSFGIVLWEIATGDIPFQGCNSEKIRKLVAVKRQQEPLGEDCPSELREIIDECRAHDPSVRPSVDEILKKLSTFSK
Structures can show the parent of a compound that is named as a salt.
experimental_readout: log10 of Kd (log10 of the value in nM)

{"compound": "Nc1ncc(-c2ccc(N3CCN(CCOCCOCCNC(=O)COc4ccc5c(c4)C(=O)N(C4CCC(=O)NC4=O)C5=O)CC3)nc2)nc1C(=O)OC(C(=O)Nc1ccc(F)cc1)c1ccccc1 (centres unmarked)", "log10 of Kd": 1.81}
{"compound": "Nc1ncc(-c2cnn(C3CCN(C(=O)CCC4CCN(C(=O)C5CN(c6ccc7nnn(C8CCC(=O)NC8=O)c(=O)c7c6)C5)CC4)CC3)c2)nc1C(=O)O[C@@H](C(=O)Nc1ccc(F)cc1)c1ccccc1 (some centres unmarked)", "log10 of Kd": 0.65}
{"compound": "Nc1ncc(-c2cnn(C3CN(CC4CCN(C(=O)CNc5ccc6c(c5)C(=O)N(C5CCC(=O)NC5=O)C6=O)CC4)C3)c2)nc1C(=O)O[C@@H](C(=O)Nc1ccc(F)cc1)c1ccccc1 (some centres unmarked)", "log10 of Kd": 0.52}
{"compound": "Nc1ncc(-c2cnn(C3CCN(CCC4CCN(c5ccc6nnn(C7CCC(=O)NC7=O)c(=O)c6c5)CC4)CC3)c2)nc1C(=O)OC(C(=O)Nc1ccc(F)cc1)c1ccccc1 (centres unmarked)", "log10 of Kd": 0.91}
{"compound": "Nc1ncc(-c2cnn(C3CCN(C(=O)CC4CCN(C(=O)CNc5cccc6c5C(=O)N(C5CCC(=O)NC5=O)C6=O)CC4)CC3)c2)nc1C(=O)O[C@@H](C(=O)Nc1ccc(F)cc1)c1ccccc1 (some centres unmarked)", "log10 of Kd": 1.11}
{"compound": "Nc1ncc(-c2cnn(C3CCN(CCOC4CCN(C(=O)COc5cccc6c5C(=O)N(C5CCC(=O)NC5=O)C6=O)CC4)CC3)c2)nc1C(=O)OC(C(=O)Nc1ccc(F)cc1)c1ccccc1 (centres unmarked)", "log10 of Kd": 0.26}
{"compound": "Nc1ncc(-c2cnn([C@H]3CCN(CCOCCOCCNC(=O)CNc4ccc5c(c4)C(=O)N(C4CCC(=O)NC4=O)C5=O)C3)c2)nc1C(=O)OC(C(=O)Nc1ccc(F)cc1)c1ccccc1 (some centres unmarked)", "log10 of Kd": 0.53}
{"compound": "Nc1ncc(-c2cnn(C3CCN(C(=O)C4CCN(C(=O)CCc5cccc6c5C(=O)N(C5CCC(=O)NC5=O)C6=O)CC4)CC3)c2)nc1C(=O)O[C@@H](C(=O)Nc1ccc(F)cc1)c1ccccc1 (some centres unmarked)", "log10 of Kd": 0.18}
{"compound": "Nc1ncc(-c2cnn(C3CCN(C4CC5(CCN(CC6CCN(c7ccc8c(c7)C(=O)N(C7CCC(=O)NC7=O)C8=O)CC6)CC5)C4)CC3)c2)nc1C(=O)O[C@@H](C(=O)Nc1ccc(F)cc1)c1ccccc1 (some centres unmarked)", "log10 of Kd": 0.20}
{"compound": "Nc1ncc(C2=CCN(C(=O)COCCOCCNC(=O)C3CCN(c4ccc5c(c4)C(=O)N(C4CCC(=O)NC4=O)C5=O)CC3)CC2)cc1C(=O)O[C@@H](C(=O)Nc1ccc(F)cc1)c1ccccc1 (some centres unmarked)", "log10 of Kd": 1.75}
{"compound": "Nc1ncc(C2=CCN(C(=O)COCCOCCNC(=O)C3CN(c4cccc5c4C(=O)N(C4CCC(=O)NC4=O)C5=O)C3)CC2)cc1C(=O)O[C@@H](C(=O)Nc1ccc(F)cc1)c1ccccc1 (some centres unmarked)", "log10 of Kd": 1.61}
{"compound": "Nc1ncc(-c2cnn(C3CCN(CCC4CCN(C(=O)CCc5ccc6c(c5)C(=O)N(C5CCC(=O)NC5=O)C6=O)CC4)CC3)c2)nc1C(=O)O[C@@H](C(=O)Nc1ccc(F)cc1)c1ccccc1 (some centres unmarked)", "log10 of Kd": -0.21}
{"compound": "Nc1ncc(-c2cnn(C3CCN(CCOC4CCN(C(=O)CNc5cccc6c5C(=O)N(C5CCC(=O)NC5=O)C6=O)CC4)CC3)c2)nc1C(=O)OC(C(=O)Nc1ccc(F)cc1)c1ccccc1 (centres unmarked)", "log10 of Kd": 0.73}
{"compound": "Nc1ncc(-c2cnn(C3CCN(CCOC4CCN(c5cccc6c5C(=O)N(C5CCC(=O)NC5=O)C6=O)CC4)CC3)c2)nc1C(=O)OC(C(=O)Nc1ccc(F)cc1)c1ccccc1 (centres unmarked)", "log10 of Kd": 1.00}
{"compound": "Nc1ncc(-c2cnn(C3CCNCC3)c2)nc1C(=O)O[C@@H](C(=O)Nc1ccccc1)c1ccccc1 [TDH-463, hydrochloride]", "log10 of Kd": -0.46}
{"compound": "COc1cccc(NC(=O)[C@H](OC(=O)c2nc(-c3cnn(C4CCN(CCCN5CCN(C(=O)COc6ccc7c(c6)C(=O)N(C6CCC(=O)NC6=O)C7=O)CC5)CC4)c3)cnc2N)c2ccccc2)c1 (some centres unmarked)", "log10 of Kd": 0.40}
{"compound": "Nc1ncc(-c2cnn(C3CCN(CCOCCOCCOCCNc4ccc5c(c4)C(=O)N(C4CCC(=O)NC4=O)C5=O)CC3)c2)nc1C(=O)O[C@@H](C(=O)Nc1ccc(F)cc1)c1ccccc1 (some centres unmarked)", "log10 of Kd": 0.58}
{"compound": "Nc1ncc(-c2cnn(C3CCN(CCCN4CCN(C(=O)CNc5ccc6c(c5)C(=O)N(C5CCC(=O)NC5=O)C6=O)CC4)CC3)c2)nc1C(=O)O[C@@H](C(=O)Nc1ccc(F)cc1)c1ccccc1 (some centres unmarked)", "log10 of Kd": -0.26}
{"compound": "Nc1ncc(-c2cnn(C3CCN(CCOCCNc4cccc5c4C(=O)N(C4CCC(=O)NC4=O)C5=O)CC3)c2)nc1C(=O)O[C@@H](C(=O)Nc1ccc(F)cc1)c1ccccc1 (some centres unmarked)", "log10 of Kd": 1.04}
{"compound": "Nc1ncc(-c2cnn(C3CCN(CCOC4CCN(C(=O)Cc5cccc(NC6=CC(=O)N(C7CCC(=O)NC7=O)C6=O)c5)CC4)CC3)c2)nc1C(=O)O[C@@H](C(=O)Nc1ccc(F)cc1)c1ccccc1 (some centres unmarked)", "log10 of Kd": 0.34}
